Test system: Isocitrate dehydrogenase [NADP] cytoplasmic (Homo sapiens), O75874 [R132H]
Sequence (O75874 whole entry R132H): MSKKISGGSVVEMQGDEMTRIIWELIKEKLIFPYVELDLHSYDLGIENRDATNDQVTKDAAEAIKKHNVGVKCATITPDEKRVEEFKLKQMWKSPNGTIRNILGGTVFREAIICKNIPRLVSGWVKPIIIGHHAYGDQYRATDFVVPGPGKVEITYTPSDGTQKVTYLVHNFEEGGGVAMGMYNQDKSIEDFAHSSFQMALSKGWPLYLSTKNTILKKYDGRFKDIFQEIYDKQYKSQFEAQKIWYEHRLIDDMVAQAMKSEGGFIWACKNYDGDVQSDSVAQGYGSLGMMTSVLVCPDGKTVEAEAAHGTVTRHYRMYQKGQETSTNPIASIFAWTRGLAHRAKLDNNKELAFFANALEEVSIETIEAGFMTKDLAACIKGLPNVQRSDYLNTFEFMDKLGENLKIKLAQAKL
ASSAY_COMMENT: Inhibition of recombinant human IDH1 R132H mutant extracted from Escherichia coli BL21 (DE3) cells using alpha-ketoglutarate as substrate at 2 uM incubated for 60 mins in presence of NADPH by absorbance based assay relative to control
Kind request: treat 60% as inclusive, so inhibition at 60% or higher is satisfied, anything lower is not satisfied.

>  <COMPOUND>
COc1ccc(-c2cc(-c3cc(CC=C(C)C)c(OC)cc3OC)nc(-c3ncccn3)n2)cc1

>  <ASSIGNED_CLASS>
satisfied

$$$$
>  <COMPOUND>
COc1cc(O)c(-c2cc(-c3ccc(O)cc3)nc(N3CCNCC3)n2)cc1CC=C(C)C

>  <ASSIGNED_CLASS>
satisfied

$$$$
>  <COMPOUND>
O=C(/C=C/c1ccc(O)cc1)OC[C@H]1O[C@@H](Oc2c(-c3ccc(O)cc3)oc3cc(O)cc(O)c3c2=O)[C@H](O)[C@@H](O)[C@@H]1O [TILIROSIDE]

>  <ASSIGNED_CLASS>
not satisfied

$$$$
>  <COMPOUND>
COc1cc(O)c(-c2cc(-c3ccc(O)cc3)nc(C)n2)cc1CC=C(C)C

>  <ASSIGNED_CLASS>
not satisfied

$$$$
>  <COMPOUND>
CCCCc1nc(-c2ccc(O)cc2)cc(-c2cc(CC=C(C)C)c(OC)cc2O)n1

>  <ASSIGNED_CLASS>
not satisfied

$$$$
>  <COMPOUND>
COc1cc(O)c(-c2cc(-c3ccc(O)cc3)nc(-c3nn(Cc4ccccc4F)c4ncccc34)n2)cc1CC=C(C)C

>  <ASSIGNED_CLASS>
satisfied

$$$$
>  <COMPOUND>
COc1ccc(-c2cc(-c3ccc(O)cc3)nc(-c3ncccn3)n2)c(O)c1

>  <ASSIGNED_CLASS>
satisfied

$$$$
